Origin of the recorded values: patent US20130267513A1

Record form. Attribute: IC50. Fill in for each entry.
biological target: LRRK2 (Homo sapiens, UniProt Q5S007); assay: LRRK2 protein kinase assay ([γ-33P] ATP, peptide substrate), IC50; conditions: LRRK2 form (G2019S or wild type) not given; read-out: Potency scores (LRRK2 IC50)
Sequence (Q5S007 whole entry G2019S, form open): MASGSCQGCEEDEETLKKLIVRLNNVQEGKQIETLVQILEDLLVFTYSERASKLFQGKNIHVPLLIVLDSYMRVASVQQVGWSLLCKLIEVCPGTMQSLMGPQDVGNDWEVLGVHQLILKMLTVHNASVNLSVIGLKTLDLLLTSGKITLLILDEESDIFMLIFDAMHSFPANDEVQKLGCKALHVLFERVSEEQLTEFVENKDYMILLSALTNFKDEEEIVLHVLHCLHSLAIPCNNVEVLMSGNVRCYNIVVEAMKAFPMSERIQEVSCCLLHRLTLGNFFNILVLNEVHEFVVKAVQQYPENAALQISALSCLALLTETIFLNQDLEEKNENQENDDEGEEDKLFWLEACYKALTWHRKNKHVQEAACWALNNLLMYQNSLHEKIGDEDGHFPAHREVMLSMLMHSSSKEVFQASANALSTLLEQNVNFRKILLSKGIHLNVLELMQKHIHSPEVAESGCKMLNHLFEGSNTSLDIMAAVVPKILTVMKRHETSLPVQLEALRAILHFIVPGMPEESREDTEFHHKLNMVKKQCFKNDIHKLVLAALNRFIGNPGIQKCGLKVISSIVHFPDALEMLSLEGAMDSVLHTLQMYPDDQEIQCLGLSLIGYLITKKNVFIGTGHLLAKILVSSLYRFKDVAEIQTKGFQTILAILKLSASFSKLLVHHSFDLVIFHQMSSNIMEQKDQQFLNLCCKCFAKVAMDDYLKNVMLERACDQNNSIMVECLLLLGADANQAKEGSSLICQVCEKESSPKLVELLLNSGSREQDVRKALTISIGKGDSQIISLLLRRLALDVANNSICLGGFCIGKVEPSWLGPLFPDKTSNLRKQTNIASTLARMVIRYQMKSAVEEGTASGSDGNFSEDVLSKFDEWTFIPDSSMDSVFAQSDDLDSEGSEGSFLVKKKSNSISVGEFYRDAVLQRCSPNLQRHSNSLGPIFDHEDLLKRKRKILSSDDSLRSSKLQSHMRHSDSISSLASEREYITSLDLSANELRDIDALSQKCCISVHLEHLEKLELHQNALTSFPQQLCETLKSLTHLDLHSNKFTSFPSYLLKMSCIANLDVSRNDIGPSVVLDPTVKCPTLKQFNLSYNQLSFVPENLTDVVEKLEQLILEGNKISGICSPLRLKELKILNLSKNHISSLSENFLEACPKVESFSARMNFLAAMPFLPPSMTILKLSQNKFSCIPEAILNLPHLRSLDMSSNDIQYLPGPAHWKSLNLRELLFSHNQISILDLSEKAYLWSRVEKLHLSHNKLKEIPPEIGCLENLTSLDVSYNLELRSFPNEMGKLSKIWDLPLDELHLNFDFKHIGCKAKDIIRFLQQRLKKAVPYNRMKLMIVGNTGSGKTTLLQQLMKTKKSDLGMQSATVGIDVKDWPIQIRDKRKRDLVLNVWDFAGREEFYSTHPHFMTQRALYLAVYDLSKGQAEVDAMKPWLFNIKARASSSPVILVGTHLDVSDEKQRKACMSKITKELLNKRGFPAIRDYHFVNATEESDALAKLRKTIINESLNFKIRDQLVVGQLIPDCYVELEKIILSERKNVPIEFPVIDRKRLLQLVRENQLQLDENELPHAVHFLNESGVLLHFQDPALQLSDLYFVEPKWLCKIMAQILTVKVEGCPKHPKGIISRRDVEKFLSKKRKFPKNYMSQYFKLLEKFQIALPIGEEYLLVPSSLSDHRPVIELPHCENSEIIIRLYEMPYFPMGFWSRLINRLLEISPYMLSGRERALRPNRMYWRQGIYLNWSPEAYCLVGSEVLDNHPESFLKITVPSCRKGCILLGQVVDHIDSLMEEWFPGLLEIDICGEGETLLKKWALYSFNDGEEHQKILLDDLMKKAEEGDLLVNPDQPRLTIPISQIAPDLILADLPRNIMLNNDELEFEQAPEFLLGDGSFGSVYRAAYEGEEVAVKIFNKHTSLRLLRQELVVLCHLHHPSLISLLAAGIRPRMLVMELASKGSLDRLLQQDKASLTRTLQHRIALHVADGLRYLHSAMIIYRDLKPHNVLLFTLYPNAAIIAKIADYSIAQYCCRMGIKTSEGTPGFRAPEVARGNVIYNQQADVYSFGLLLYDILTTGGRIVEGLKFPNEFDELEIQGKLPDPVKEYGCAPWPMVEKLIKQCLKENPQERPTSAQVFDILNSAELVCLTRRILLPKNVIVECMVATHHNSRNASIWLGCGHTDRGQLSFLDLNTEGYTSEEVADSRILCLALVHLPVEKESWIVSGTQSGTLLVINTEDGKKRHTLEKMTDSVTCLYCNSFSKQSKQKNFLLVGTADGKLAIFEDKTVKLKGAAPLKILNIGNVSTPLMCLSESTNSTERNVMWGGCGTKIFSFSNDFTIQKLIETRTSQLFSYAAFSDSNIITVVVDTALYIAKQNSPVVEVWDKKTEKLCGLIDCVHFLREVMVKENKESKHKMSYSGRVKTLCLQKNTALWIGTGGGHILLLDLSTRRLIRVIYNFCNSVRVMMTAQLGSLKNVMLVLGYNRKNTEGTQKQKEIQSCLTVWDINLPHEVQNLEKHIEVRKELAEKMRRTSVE

IC50 in this record for Cc1n[nH]c2cc(N3CCOCC3)nc(OC3CCCCC3)c12 [Example 3] : 1 to 10 µM

Sure, the documented IC50 for Cc1n[nH]c2cncc(-c3ccco3)c12 [Example 8] is 0.1 to 1 µM

Cc1n[nH]c2cncc(NC3CCCCC3)c12 [Example 9] has a reported IC50 of 0.1 to 1 µM

Entry Cc1n[nH]c2cc(Cl)nc(NC3CCCCC3)c12 [Example 1] , IC50 reported as 0.1 to 1 µM

Data point: Cc1n[nH]c2cncc(OC3CCCCC3)c12 [Example 10] ; IC50 = 0.1 to 1 µM

Lookup result for Cc1cc2[nH]nc(C)c2c(OC2CCCCC2)n1 [Example 6] ; measured IC50: 0.1 to 1 µM

Quick note, IC50 for Cc1cc2[nH]nc(C)c2c(NC2CCCCC2)n1 [Example 5] landed at 1 to 10 µM

The reported IC50 of the compound Cc1cc2[nH]nc(C)c2c(-c2ccco2)n1 [Example 7] was 0.1 to 1 µM

So, Cc1n[nH]c2cc(-c3cnn(C)c3)nc(OC3CCCCC3)c12 [Example 4] ? Its IC50 was 1 to 10 µM

Recorded result, Cc1n[nH]c2cc(Cl)nc(OC3CCCCC3)c12 [Example 2] , IC50: 0.1 to 1 µM

----------
target: LRRK2 (Homo sapiens, UniProt Q5S007)
pKi: −log10 of the molar value.
Provide the recorded pKi for the entries that follow.

Measured pKi for this entry COc1nc(C)cc2[nH]nc(-c3ccnc(N4CCOCC4)c3)c12 [Example 20] on LRRK2 (Homo sapiens, UniProt Q5S007): 6.00 to 7.00

Observed pKi on LRRK2 (Homo sapiens, UniProt Q5S007), entry CC(C)Cn1cc(-c2n[nH]c3cc(C#N)nc(OC4CCOCC4)c23)cn1 [Example 11] , equals > 7.00

Readout pKi for Cc1cc2[nH]nc(-c3cc(C(=O)N(C)C)ccn3)c2c(NC2CCOCC2)n1 [Example 16] , test system LRRK2 (Homo sapiens, UniProt Q5S007), was 6.00 to 7.00

LRRK2 (Homo sapiens, UniProt Q5S007) pKi of Cc1cc2[nH]nc(-c3cnn(C4CCOCC4)c3)c2c(OC2CCOCC2)n1 [Example 24] is > 7.00

Field pKi (system: LRRK2 (Homo sapiens, UniProt Q5S007)) for entry N#Cc1cc2[nH]nc(-c3ccnc(N4CCOCC4)c3)c2c(OC2CCOCC2)n1 [Example 13] = 6.00 to 7.00

Given the compound Cc1cc2[nH]nc(-c3ccnc(N4CCOCC4)c3)c2c(OC2CCOCC2)n1 [Example 22] and test system LRRK2 (Homo sapiens, UniProt Q5S007), the measured pKi is > 7.00

Clc1cc2[nH]nc(-c3ccnc(N4CCOCC4)c3)c2c(OC2CCOCC2)n1 [Example 12] on LRRK2 (Homo sapiens, UniProt Q5S007) gives pKi = > 7.00

Bench note, LRRK2 (Homo sapiens, UniProt Q5S007): entry Cc1[nH]nc2cc(C3CC3)nc(OC3CCCCC3)c12 [Example 14] , its pKi = 6.00 to 7.00
